Values from patent US8247211B2

System: Streptococcus sp.
experimentalProtocol: In vitro antibacterial evaluation: minimum inhibitory concentration (MIC), broth dilution method
Assay type: cell-based
conditionSummary: Streptococcus pneumoniae (ATCC 6301); broth dilution, 18 hours at 35° C.
measurementKind: MIC Streptococcus pneumoniae (ATCC 6301) (µg/mL)
Supply the numeric figure in µg/mL, leaving out any unit text.

Reference set, count: 4
compound: CCCCCCN=C1NCC(C(O)C2NC(=O)C(C(O)C3CNC(=N)N3)NC(=O)C(Cc3ccc(OC4OC(CO)C(OC5OC6COC7(OC6C(O)C5O)C5CC6CC(C5)CC7C6)C(O)C4O)cc3)NC(=O)C(C(C)c3ccccc3)NC(=O)CNC(=O)C(CO)NC2=O)N1C1OC(CO)C(O)C(O)C1O (stereo not drawn)
testTarget: Streptococcus sp.
MIC Streptococcus pneumoniae (ATCC 6301) / µg/mL: 1

compound: CC(c1ccccc1)C1NC(=O)CNC(=O)C(CO)NC(=O)C(C(O)C2CNC(=N)N2C2OC(CO)C(O)C(O)C2O)NC(=O)C(C(O)C2CNC(=N)N2)NC(=O)C(Cc2ccc3oc(=O)[nH]c3c2)NC1=O (stereo not drawn)
testTarget: Streptococcus sp.
MIC Streptococcus pneumoniae (ATCC 6301) / µg/mL: 8

compound: CC(c1ccccc1)C1NC(=O)CNC(=O)C(CO)NC(=O)C(C(O)C2CNC(=N)N2C2OC(CO)C(O)C(O)C2O)NC(=O)C(C(O)C2CNC(=N)N2)NC(=O)C(Cc2ccc3oc(-c4ccc(OCc5ccccc5)cc4)nc3c2)NC1=O (stereo not drawn)
testTarget: Streptococcus sp.
MIC Streptococcus pneumoniae (ATCC 6301) / µg/mL: 16

compound: COc1cc(-c2nc3cc(CC4NC(=O)C(C(C)c5ccccc5)NC(=O)CNC(=O)C(CO)NC(=O)C(C(O)C5CNC(=N)N5C5OC(CO)C(O)C(O)C5O)NC(=O)C(C(O)C5CNC(=N)N5)NC4=O)ccc3o2)cc(OC)c1OC (stereo not drawn)
testTarget: Streptococcus sp.
MIC Streptococcus pneumoniae (ATCC 6301) / µg/mL: 32

Per the reported Streptococcus sp. data, CC(c1ccccc1)C1NC(=O)CNC(=O)C(CO)NC(=O)C(C(O)C2CN(CCCCCCCCCCC(=O)O)C(=N)N2C2OC(CO)C(O)C(O)C2O)NC(=O)C(C(O)C2CNC(=N)N2)NC(=O)C(Cc2ccc(OC3OC(CO)C(OC4OC(CO)C(O)C(O)C4O)C(O)C3O)cc2)NC1=O (stereo not drawn) has MIC Streptococcus pneumoniae (ATCC 6301) of 64

GET /values?item= CC(c1ccccc1)C1NC(=O)CNC(=O)C(CO)NC(=O)C(C(O)C2CNC(=N)N2C2OC(CO)C(O)C(O)C2O)NC(=O)C(C(O)C2CNC(=N)N2)NC(=O)C(Cc2ccc3oc(-c4cccc(F)c4)nc3c2)NC1=O (stereo not drawn) &system= Streptococcus sp. returns MIC Streptococcus pneumoniae (ATCC 6301): 8

Fill in: Streptococcus sp. MIC Streptococcus pneumoniae (ATCC 6301) for CCCCCCCN1CC(C(O)C2NC(=O)C(C(O)C3CNC(=N)N3)NC(=O)C(Cc3ccc(OC4OC(CO)C(OC5OC6COC7(OC6C(O)C5O)C5CC6CC(C5)CC7C6)C(O)C4O)cc3)NC(=O)C(C(C)c3ccccc3)NC(=O)CNC(=O)C(CO)NC2=O)N(C2OC(CO)C(O)C(O)C2O)C1=N (stereo not drawn) = 0.5

Let me check: CC(C)=CCCC(C)=CCN=C1NCC(C(O)C2NC(=O)C(C(O)C3CNC(=N)N3)NC(=O)C(Cc3ccc(OC4OC(CO)C(OC5OC6COC7(OC6C(O)C5O)C5CC6CC(C5)CC7C6)C(O)C4O)cc3)NC(=O)C(C(C)c3ccccc3)NC(=O)CNC(=O)C(CO)NC2=O)N1C1OC(CO)C(O)C(O)C1O (stereo not drawn) , system Streptococcus sp., measured MIC Streptococcus pneumoniae (ATCC 6301) is 2

Sample COc1ccc(Oc2cccc(-c3nc4cc(CC5NC(=O)C(C(C)c6ccccc6)NC(=O)CNC(=O)C(CO)NC(=O)C(C(O)C6CNC(=N)N6C6OC(CO)C(O)C(O)C6O)NC(=O)C(C(O)C6CNC(=N)N6)NC5=O)ccc4o3)c2)cc1 (stereo not drawn) , system: Streptococcus sp.. Its MIC Streptococcus pneumoniae (ATCC 6301) is 8

Record CC(c1ccccc1)C1NC(=O)CNC(=O)C(CO)NC(=O)C(C(O)C2CNC(=N)N2C2OC(CO)C(O)C(O)C2O)NC(=O)C(C(O)C2CNC(=N)N2)NC(=O)C(Cc2ccc3oc(-c4cccc([N+](=O)[O-])c4)nc3c2)NC1=O (stereo not drawn) ; system Streptococcus sp.; MIC Streptococcus pneumoniae (ATCC 6301) = 32
